System: mouse colon carcinoma (CT26.WT) cells
PROCEDURE SUMMARY: MTT cell viability assay, CT26.WT
Format: cell-based
TEST SETTINGS: 48 h
pIC50: −log10 of the molar value.
# pIC50 values compiled below

Below: 5 molecules and their reported pIC50.
COc1ccc(-c2csc(NS(=O)(=O)c3ccc(F)cc3)n2)c(O)c1 [Compound 13d]	< 4.30
COc1ccc(-c2csc(NS(=O)(=O)c3ccc(C)cc3)n2)c(O)c1 [Compound 13b]	< 4.30
COc1ccc(-c2csc(NS(=O)(=O)c3ccc(Br)cc3)n2)c(O)c1 [Compound 13f]	< 4.30
COc1ccc(S(=O)(=O)Nc2nc(-c3ccc(OC)cc3O)cs2)cc1 [Compound 13c]	5.00
O=c1[nH]cc(F)c(=O)[nH]1 [Compound 5-FU, 5-fluorouracil, reference compound]	5.04

// query Bench note: what pIC50 did COc1ccc(-c2csc(NS(=O)(=O)c3ccccc3)n2)c(O)c1 [Compound 13a] show?
// result < 4.30

// query Request: COc1ccc(-c2csc(NS(=O)(=O)c3ccc(Cl)cc3)n2)c(O)c1 [Compound 13e]
// result < 4.30

// query Input COc1ccc(-c2csc(NS(=O)(=O)c3ccc([N+](=O)[O-])cc3)n2)c(O)c1 [Compound 13g]
// result 4.52
